test system: RAW-Dual (murine macrophage reporter line); assay: NF-kB reporter (SEAP) activity fold change vs agonist alone; higher = enhanced NF-kB activity; conditions: modulator concentration 10 µM; agonist: CpG ODN 1826 0.5 ug/mL
property-label: NF-kB reporter

Task item: Reported NF-kB reporter for CC(C)N(CCC(C(N)=O)(c1ccccc1)c1ccccn1)C(C)C (configuration not stated) : what is it?
Reply: 0.86

Task item: Reported NF-kB reporter for `CCn1cc(C(=O)O)c(=O)c2c(N)c(F)c(N3CCNCC3)c(F)c21` : what is it?
Reply: 0.952

Task item: Reported NF-kB reporter for CC(C(O)c1ccccc1)N(C)C (configuration not stated) : what is it?
Reply: 0.96

Task item: Reported NF-kB reporter for `COc1ccc(CCNCc2ccc3ccccc3c2)cc1OC` : what is it?
Reply: 0.42

Task item: Reported NF-kB reporter for `CC(C)=CCOc1c2occc2cc2ccc(=O)oc12` : what is it?
Reply: 1.13

Task item: Reported NF-kB reporter for `CCOC(=O)Nc1ccc(NCc2ccc(F)cc2)cc1N` : what is it?
Reply: 0.882

Task item: Reported NF-kB reporter for `Cc1cccc(COc2ccc(C=C3C(=O)NC(=S)NC3=O)cc2)c1` : what is it?
Reply: 0.855

Task item: Reported NF-kB reporter for `Cc1cccc(-n2c(C)nc3ccccc3c2=O)n1` : what is it?
Reply: 0.88

Task item: Reported NF-kB reporter for `O=c1cc(CCl)occ1O` : what is it?
Reply: 1.18

Task item: Reported NF-kB reporter for `O=C1NC(=S)NC(=O)C1=Cc1ccc(OCc2ccc(F)cc2)c(Cl)c1` : what is it?
Reply: 0.918

Task item: Reported NF-kB reporter for `COc1ccc(-n2c(C)nc3ccc(NC(=O)CC4CCCC4)cc3c2=O)cc1` : what is it?
Reply: 1.14

Task item: Reported NF-kB reporter for `CCC1(C)CC(=O)NC(=O)C1` : what is it?
Reply: 0.907

* * *

test system: RAW-Dual (murine macrophage reporter line); assay: IRF reporter (Lucia luciferase) activity fold change vs agonist alone; higher = enhanced IRF activity; conditions: modulator concentration 10 µM; agonist: 3'3'-cGAMP 10 ug/mL
Would you kindly list IRF reporter for each of these compounds?

Task item: Record `CCCC(=O)c1ccc(N2CCN(C)CC2)c(F)c1` : what is its IRF reporter with RAW-Dual (murine macrophage reporter line)?
Reply: 1.02

Task item: Record `Cc1cc(N2CCNCC2)c2ccccc2n1` : what is its IRF reporter with RAW-Dual (murine macrophage reporter line)?
Reply: 0.561

Task item: Record `CCC1(c2ccccc2)C(=O)N(Cc2ccccc2)C(=O)N(Cc2ccccc2)C1=O` : what is its IRF reporter with RAW-Dual (murine macrophage reporter line)?
Reply: 1.17

Task item: Record `COc1ccc(CCNCc2ccc3ccccc3c2)cc1` : what is its IRF reporter with RAW-Dual (murine macrophage reporter line)?
Reply: 0.88

Task item: Record `CCCCCn1c(=O)c(C(=O)NCc2cccnc2)c(O)c2ccccc21` : what is its IRF reporter with RAW-Dual (murine macrophage reporter line)?
Reply: 1.02

Task item: Record CC12CC1(C)C(=O)N(c1cc(Cl)cc(Cl)c1)C2=O (stereo unspecified) : what is its IRF reporter with RAW-Dual (murine macrophage reporter line)?
Reply: 0.942

* * *

Would you kindly list IRF reporter for each of these molecules?
system: RAW-Dual (murine macrophage reporter line); test: IRF reporter (Lucia luciferase) activity fold change vs agonist alone; higher = enhanced IRF activity; conditions: modulator concentration 10 µM; agonist: MPLA […]
# print the numeric value only

Task item: Record COc1cc2c(cc1O)CC1c3c(cc(O)c(OC)c3-2)CCN1C (configuration not stated) : what is its IRF reporter with RAW-Dual (murine macrophage reporter line)?
Reply: 1.12

Task item: Record `O=C(O)CCCc1ccc(N(CCCl)CCCl)cc1` : what is its IRF reporter with RAW-Dual (murine macrophage reporter line)?
Reply: 1.08

Task item: Record Cc1cc(C(=O)N2C3CCC2c2cncnc2C3)n(C)n1 (configuration not stated) : what is its IRF reporter with RAW-Dual (murine macrophage reporter line)?
Reply: 1.11

Task item: Record `COc1ccc(CNCCc2c[nH]c3ccccc23)cc1OC` : what is its IRF reporter with RAW-Dual (murine macrophage reporter line)?
Reply: 1.34

Task item: Record CN1C(=O)COc2c(C(=O)NC3CN4CCC3CC4)cc(Cl)cc21.Cl (configuration not stated) : what is its IRF reporter with RAW-Dual (murine macrophage reporter line)?
Reply: 1.71

Task item: Record `Clc1cccc(CNCCc2c[nH]c3ccccc23)c1` : what is its IRF reporter with RAW-Dual (murine macrophage reporter line)?
Reply: 1.7

Task item: Record `COc1ccc(CCNCc2ccc(OC)c(OC)c2OC)cc1OC` : what is its IRF reporter with RAW-Dual (murine macrophage reporter line)?
Reply: 0.997

Task item: Record CN1CC(CNC(=O)OCc2ccccc2)CC2c3cccc4c3c(cn4C)CC21 (configuration not stated) : what is its IRF reporter with RAW-Dual (murine macrophage reporter line)?
Reply: 1.2

Task item: Record CC(NC(C)(C)C)C(=O)c1cccc(Cl)c1.Cl (configuration not stated) : what is its IRF reporter with RAW-Dual (murine macrophage reporter line)?
Reply: 0.904

Task item: Record `COc1ccc(CNCCc2c[nH]c3ccccc23)c(OC)c1C` : what is its IRF reporter with RAW-Dual (murine macrophage reporter line)?
Reply: 2.88

Task item: Record `COc1ccc(-n2c(C)nc3ccc(NC(=O)CC4CCCC4)cc3c2=O)cc1` : what is its IRF reporter with RAW-Dual (murine macrophage reporter line)?
Reply: 0.875

Task item: Record `CCCC(=O)c1ccc(N2CCNCC2)c(F)c1` : what is its IRF reporter with RAW-Dual (murine macrophage reporter line)?
Reply: 1.66

* * *

system: RAW-Dual (murine macrophage reporter line); assay: IRF reporter (Lucia luciferase) activity fold change vs agonist alone; higher = enhanced IRF activity; conditions: modulator concentration 10 µM; agonist: LPS 0.1 ug/mL
Would you kindly list IRF reporter for each of these compounds?
# print the numeric value only

Task item: Reported IRF reporter for `O=[N+]([O-])Nc1ccc(Br)cn1` : what is it?
Reply: 1.09

Task item: Reported IRF reporter for `O=c1cc(CCl)occ1O` : what is it?
Reply: 0.876

Task item: Reported IRF reporter for `COc1ccc(CNCCc2c[nH]c3ccccc23)c(OC)c1C` : what is it?
Reply: 3.32

Task item: Reported IRF reporter for CC[N+]1(C)CCCC(OC(=O)C(O)(c2ccccc2)c2ccccc2)C1 (configuration not stated) [Prestw-760] : what is it?
Reply: 1.13

Task item: Reported IRF reporter for `COc1ccccc1CC(=O)N1CCN(Cc2cnnn2-c2ccccc2F)CC1` : what is it?
Reply: 1.14

Task item: Reported IRF reporter for `COc1ccc(-n2c(C)nc3ccc(NC(=O)CC4CCCC4)cc3c2=O)cc1` : what is it?
Reply: 0.925

Task item: Reported IRF reporter for `COc1ccc(CNCCc2c[nH]c3ccccc23)cc1C` : what is it?
Reply: 1.04

Task item: Reported IRF reporter for `COc1ccc2c3c([nH]c2c1)C(C)=NCC3` : what is it?
Reply: 0.771

Task item: Reported IRF reporter for `CN1C(=O)NC(=O)C(=Cc2ccc([N+](=O)[O-])s2)C1=O` : what is it?
Reply: 0.925

Task item: Reported IRF reporter for CN1C2CCC1CC(OC(=O)[C@H](CO)c1ccccc1)C2 (some centres not stated) : what is it?
Reply: 0.968

Task item: Reported IRF reporter for `O=C(O)CC[N+](=O)[O-]` : what is it?
Reply: 0.96

Task item: Reported IRF reporter for CCC1CN2CCC1CC2C(O)c1ccnc2ccc(OC)cc12 (configuration not stated) : what is it?
Reply: 1.21

* * *

Would you kindly list viability score for each of these molecules?
system: RAW-Dual (murine macrophage reporter line); assay: viability score (confluency relative to resting cells, overnight) (fraction); higher = more viable, active = viable (0.7 or more); conditions: modulator concentration 10 µM
# print the numeric value only

Task item: Reported viability score for `O=[N+]([O-])c1ccc(NCCc2ccccc2)c2ncccc12` : what is it?
Reply: 0.997

Task item: Reported viability score for `COC(=O)c1ccc(N2C(=O)NC(=O)C(=Cc3ccc(OCc4ccccc4F)cc3)C2=O)cc1` : what is it?
Reply: 1

Task item: Reported viability score for CC12CCC3C(CCC4CC(=O)CCC43C)C1CCC2=O (stereo unspecified) : what is it?
Reply: 0.997

Task item: Reported viability score for `CCOC(=O)c1ccccc1-c1ccc(C=C2C(=O)NC(=O)N(c3cccc(C)c3)C2=O)o1` : what is it?
Reply: 0.995

Task item: Reported viability score for `CCN(CC)CCOC(=O)C(O)(c1ccccc1)c1ccccc1.Cl` : what is it?
Reply: 0.98

Task item: Reported viability score for CC12CCC3C(CCC4CC(O)CCC43C)C1CCC2O (stereo unspecified) : what is it?
Reply: 0.963

Task item: Reported viability score for CC12CCC3C(CCC4CC(Cl)CCC43C)C1CCC2=O (stereo unspecified) : what is it?
Reply: 1.05

Task item: Reported viability score for COc1cc2c(cc1OC)C1C(=O)c3ccc4c(c3OC1CO2)CC(C(C)C)O4 (stereo unspecified) : what is it?
Reply: 0.976

Task item: Reported viability score for `COc1cc(CNCCc2ccc(OC)c(OC)c2)cc(OC)c1` : what is it?
Reply: 1.02

Task item: Reported viability score for `COc1ccc(CCNCc2ccc(OC)c(OC)c2OC)cc1OC` : what is it?
Reply: 0.998

Task item: Reported viability score for `O=C(CCCN1CCC(n2c(=O)[nH]c3ccccc32)CC1)c1ccc(F)cc1` : what is it?
Reply: 1
